System tested: UniProt P35348
Sequence (P35348 1-466): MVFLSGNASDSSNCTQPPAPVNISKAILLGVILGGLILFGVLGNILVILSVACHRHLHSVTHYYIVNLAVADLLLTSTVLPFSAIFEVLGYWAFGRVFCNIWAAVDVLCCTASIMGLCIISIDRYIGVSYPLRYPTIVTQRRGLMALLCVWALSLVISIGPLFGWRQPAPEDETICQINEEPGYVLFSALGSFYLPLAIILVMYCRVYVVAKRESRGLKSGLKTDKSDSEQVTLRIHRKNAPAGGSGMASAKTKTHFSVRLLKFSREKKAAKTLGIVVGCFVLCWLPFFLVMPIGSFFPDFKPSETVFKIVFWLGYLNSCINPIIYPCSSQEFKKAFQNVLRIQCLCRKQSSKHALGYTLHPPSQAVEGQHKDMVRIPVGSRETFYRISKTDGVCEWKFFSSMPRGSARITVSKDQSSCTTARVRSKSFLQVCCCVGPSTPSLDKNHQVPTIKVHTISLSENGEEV
Assay: SAFETYScan GPCR Calcium Flux, Agonist
Measurement context: read-out: RC50 (EC50)
Outcome measure: EC50

[ask] For the record C[C@H]1C[C@@H](O)CN(c2ncc(Cl)c(Nc3ccc4c(c3)c3c(c(=O)n4C)OCC(F)(F)[C@H](C4CC4)N3)n2)C1 [12a CCT373566] , what value of EC50 is listed for UniProt P35348?
[reply] > 10 µM

###

Measured MSD degrader assay [OCI-LY1] pDC50 mean values are reported for all entries that follow.
System tested: endogenous BCL6 in OCI-Ly1 cells (Homo sapiens)
Assay: cell-based
Measurement context: mean of replicates
Answer with a bare number; do not write a unit.

[ask] Query (compound): C[C@@H]1CCCN(c2ncc(Cl)c(Nc3ccc4c(c3)c3c(c(=O)n4C)OCC(F)(F)[C@H](C4CC4)N3)n2)C1 [15b] ; field requested: MSD degrader assay [OCI-LY1] pDC50 mean
[reply] 7.4874

[ask] Given the compound C[C@H]1C[C@@H](O)CN(c2ncc(Cl)c(Nc3ccc4c(c3)n(CCC(C)(C)O)c(=O)n4C)n2)C1 (relative stereo) [compound 5] , what is its reported MSD degrader assay [OCI-LY1] pDC50 mean?
[reply] 7.4626

[ask] Entry C[C@H]1C[C@@H](N(C)C)CN(c2ncc(Cl)c(Nc3ccc4c(c3)c3c(c(=O)n4C)OCC(F)(F)[C@H](C4CC4)N3)n2)C1 [11a] has what MSD degrader assay [OCI-LY1] pDC50 mean?
[reply] 8.0099

[ask] MSD degrader assay [OCI-LY1] pDC50 mean lookup needed for C[C@H]1C[C@@H](O)CN(c2ncc(Cl)c(Nc3ccc4c(c3)c3c(c(=O)n4C)OCC(F)(F)[C@H](C4CC4)N3)n2)C1 [12a CCT373566] , thanks.
[reply] 9.1465

[ask] Endpoint output: MSD degrader assay [OCI-LY1] pDC50 mean of CC(=O)N[C@@H]1C[C@H](C)CN(c2ncc(Cl)c(Nc3ccc4c(c3)c3c(c(=O)n4C)OCC(F)(F)[C@H](C4CC4)N3)n2)C1 [10a] . Value?
[reply] 8.6565

[ask] For the compound shown here, Cn1c(=O)c2c(c3cc(Nc4nc(N5CCC(F)(F)[C@@H](CO)C5)ncc4Cl)ccc31)N[C@@H](C1CC1)C(F)(F)CO2 [9a] , give the reported MSD degrader assay [OCI-LY1] pDC50 mean.
[reply] 8.5622

[ask] Report MSD degrader assay [OCI-LY1] pDC50 mean for C[C@H]1CCCN(c2ncc(Cl)c(Nc3ccc4c(c3)c3c(c(=O)n4C)OCC(F)(F)[C@H](C4CC4)N3)n2)C1 [15a] please.
[reply] 8.1987

[ask] What does the data say about its MSD degrader assay [OCI-LY1] pDC50 mean? Entry: Cn1c(=O)c2c(c3cc(Nc4nc(N5CCC(F)(F)[C@@H](O)C5)ncc4Cl)ccc31)N[C@@H](C1CC1)C(F)(F)CO2 (single isomer, unassigned) [8a]
[reply] 8.1499

[ask] Suppose we examine the compound Cn1c(=O)n(CCC(C)(C)O)c2cc(Nc3nc(N4CCC(F)(F)C(O)C4)ncc3Cl)ccc21 (stereo not drawn) [compound 3] ; what MSD degrader assay [OCI-LY1] pDC50 mean value has been reported?
[reply] 6.5593

###

System tested: human BCL6 BTB domain (Homo sapiens)
Assay: biochemical
Measurement context: BCL6 TR-FRET IC50, geometric mean; BCOR-AF633 peptide, 2 h incubation
Outcome measure: IC50 (nM)
Just the number in nM, nothing appended.

C[C@H]1C[C@@H](O)CN(c2ncc(Cl)c(Nc3ccc4c(c3)n(CCC(C)(C)O)c(=O)n4C)n2)C1 (relative stereo) ... 95

[ask] // IC50 lookup, key: Cn1c(=O)c2c(c3cc(Nc4nc(N5CCC[C@H](O)C5)ncc4Cl)ccc31)N[C@@H](C1CC1)C(F)(F)CO2 [14b]
[reply] 3

###

System tested: HTR3A (Homo sapiens)
Sequence (P46098 24-478): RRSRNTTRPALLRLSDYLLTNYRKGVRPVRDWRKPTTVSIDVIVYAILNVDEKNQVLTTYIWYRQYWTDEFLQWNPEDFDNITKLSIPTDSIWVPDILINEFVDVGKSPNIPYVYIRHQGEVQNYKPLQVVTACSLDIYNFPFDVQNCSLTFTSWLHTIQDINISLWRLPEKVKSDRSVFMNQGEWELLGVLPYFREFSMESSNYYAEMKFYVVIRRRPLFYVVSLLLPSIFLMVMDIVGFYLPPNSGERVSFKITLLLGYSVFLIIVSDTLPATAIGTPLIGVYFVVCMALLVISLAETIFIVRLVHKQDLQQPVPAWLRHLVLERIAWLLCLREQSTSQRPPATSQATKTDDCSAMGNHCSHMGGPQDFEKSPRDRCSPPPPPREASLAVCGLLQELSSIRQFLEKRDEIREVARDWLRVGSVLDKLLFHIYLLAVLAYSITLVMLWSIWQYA
Assay: SAFETYScan Ion Channel, Opener
Format: cell-based
Measurement context: read-out: RC50 (EC50)
Excerpt: Supplement jm1c02175_si_002.xlsx, sheet "SAFETYScan" | column: RC50 (uM); Max Response
pEC50: −log10 of the molar value.
Outcome measure: pEC50

[ask] Item under review: C[C@H]1C[C@@H](O)CN(c2ncc(Cl)c(Nc3ccc4c(c3)c3c(c(=O)n4C)OCC(F)(F)[C@H](C4CC4)N3)n2)C1 [12a CCT373566] . Reported pEC50?
[reply] < 5.00

###

System tested: UniProt:P34972
Sequence (P34972 whole entry): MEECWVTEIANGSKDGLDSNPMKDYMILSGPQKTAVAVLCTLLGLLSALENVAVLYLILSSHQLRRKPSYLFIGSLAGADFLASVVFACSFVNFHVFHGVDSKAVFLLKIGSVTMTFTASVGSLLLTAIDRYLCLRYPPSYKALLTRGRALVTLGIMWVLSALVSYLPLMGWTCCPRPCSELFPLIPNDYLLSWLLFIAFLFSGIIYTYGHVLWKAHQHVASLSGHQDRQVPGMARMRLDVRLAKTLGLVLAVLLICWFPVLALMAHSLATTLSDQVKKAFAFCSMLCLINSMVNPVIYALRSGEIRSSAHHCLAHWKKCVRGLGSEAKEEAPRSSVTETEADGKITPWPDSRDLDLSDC
Assay: SAFETYScan GPCR cAMP, Antagonist
Measurement context: read-out: RC50 (IC50)
Outcome measure: IC50

[ask] If you can, please state the reported IC50 value of C[C@H]1C[C@@H](O)CN(c2ncc(Cl)c(Nc3ccc4c(c3)c3c(c(=O)n4C)OCC(F)(F)[C@H](C4CC4)N3)n2)C1 [12a CCT373566] .
[reply] > 10 µM

###

System tested: endogenous BCL6 in OCI-Ly1 cells (Homo sapiens)
Assay: cell-based
Measurement context: read-out: MSD degrader assay [OCI-LY1] DC50 individual replicates; single replicate values
# reported DC50; entries follow

Cn1c(=O)c2c(c3cc(Nc4nc(N5CCC[C@@H](O)C5)ncc4Cl)ccc31)N[C@@H](C1CC1)C(F)(F)CO2 [14a] ... > 2000 nM

[ask] Which DC50 reading was recorded for the molecule C[C@@H]1C[C@@H](O)CN(c2ncc(Cl)c(Nc3ccc4c(c3)c3c(c(=O)n4C)OCC(F)(F)[C@H](C4CC4)N3)n2)C1 [13a] ?
[reply] > 2000 nM

[ask] Any idea what DC50 was measured for Cn1c(=O)c2c(c3cc(Nc4nc(N5CCC(F)(F)[C@H](CO)C5)ncc4Cl)ccc31)N[C@@H](C1CC1)C(F)(F)CO2 [9b] ?
[reply] > 2000 nM

###

System tested: DAT (Homo sapiens)
Sequence (Q01959 whole entry): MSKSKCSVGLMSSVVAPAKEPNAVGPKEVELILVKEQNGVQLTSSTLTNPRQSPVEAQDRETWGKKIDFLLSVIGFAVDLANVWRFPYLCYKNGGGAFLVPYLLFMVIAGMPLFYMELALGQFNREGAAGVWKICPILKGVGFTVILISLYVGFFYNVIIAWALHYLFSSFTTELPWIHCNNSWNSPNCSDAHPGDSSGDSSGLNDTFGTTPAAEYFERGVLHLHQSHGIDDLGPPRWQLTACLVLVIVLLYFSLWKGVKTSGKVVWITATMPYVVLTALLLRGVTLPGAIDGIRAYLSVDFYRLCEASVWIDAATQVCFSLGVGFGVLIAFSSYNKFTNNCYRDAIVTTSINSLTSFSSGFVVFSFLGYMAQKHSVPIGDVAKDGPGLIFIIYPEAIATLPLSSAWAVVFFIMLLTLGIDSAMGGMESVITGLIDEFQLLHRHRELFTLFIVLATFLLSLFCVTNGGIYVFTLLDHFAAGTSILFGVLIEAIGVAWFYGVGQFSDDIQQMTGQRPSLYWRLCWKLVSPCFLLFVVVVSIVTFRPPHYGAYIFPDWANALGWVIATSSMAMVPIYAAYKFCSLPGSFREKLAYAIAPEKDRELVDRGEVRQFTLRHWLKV
Assay: SAFETYScan Transporter, Blocker
Measurement context: read-out: RC50 (IC50)
Outcome measure: IC50

[ask] Using the record for C[C@H]1C[C@@H](O)CN(c2ncc(Cl)c(Nc3ccc4c(c3)c3c(c(=O)n4C)OCC(F)(F)[C@H](C4CC4)N3)n2)C1 [12a CCT373566] , report its IC50.
[reply] > 10 µM

###

System tested: CHRM2 (Homo sapiens)
Sequence (P08172 1-466): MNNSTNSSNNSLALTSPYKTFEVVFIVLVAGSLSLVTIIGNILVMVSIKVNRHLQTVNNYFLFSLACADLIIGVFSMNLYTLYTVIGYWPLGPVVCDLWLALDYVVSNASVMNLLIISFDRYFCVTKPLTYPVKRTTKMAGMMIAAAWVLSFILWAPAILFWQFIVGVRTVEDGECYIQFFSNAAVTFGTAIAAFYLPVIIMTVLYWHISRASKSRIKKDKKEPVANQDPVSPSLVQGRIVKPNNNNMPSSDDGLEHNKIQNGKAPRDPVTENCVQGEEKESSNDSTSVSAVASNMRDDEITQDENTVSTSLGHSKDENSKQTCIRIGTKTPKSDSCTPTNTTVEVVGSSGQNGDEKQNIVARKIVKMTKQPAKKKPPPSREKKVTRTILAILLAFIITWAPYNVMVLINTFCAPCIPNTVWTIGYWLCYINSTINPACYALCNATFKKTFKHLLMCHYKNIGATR
Assay: SAFETYScan GPCR cAMP, Agonist
Measurement context: read-out: RC50 (EC50)
Outcome measure: EC50

[ask] Recorded EC50 for C[C@H]1C[C@@H](O)CN(c2ncc(Cl)c(Nc3ccc4c(c3)c3c(c(=O)n4C)OCC(F)(F)[C@H](C4CC4)N3)n2)C1 [12a CCT373566] , please?
[reply] > 10 µM
